target: T1, human DLL4 his tag fusion protein (Sino Biological, Cat. No. 10171-H08H) (human, UniProt Q9NR61 27-524); assay: ELISA, hDLL4-his coated at 1 ug/mL
T1 construct: Bought protein; also called hDLL4-his; hDLL4 protein; not shown: his tag
T1 sequence (Q9NR61 27-524 limits assumed): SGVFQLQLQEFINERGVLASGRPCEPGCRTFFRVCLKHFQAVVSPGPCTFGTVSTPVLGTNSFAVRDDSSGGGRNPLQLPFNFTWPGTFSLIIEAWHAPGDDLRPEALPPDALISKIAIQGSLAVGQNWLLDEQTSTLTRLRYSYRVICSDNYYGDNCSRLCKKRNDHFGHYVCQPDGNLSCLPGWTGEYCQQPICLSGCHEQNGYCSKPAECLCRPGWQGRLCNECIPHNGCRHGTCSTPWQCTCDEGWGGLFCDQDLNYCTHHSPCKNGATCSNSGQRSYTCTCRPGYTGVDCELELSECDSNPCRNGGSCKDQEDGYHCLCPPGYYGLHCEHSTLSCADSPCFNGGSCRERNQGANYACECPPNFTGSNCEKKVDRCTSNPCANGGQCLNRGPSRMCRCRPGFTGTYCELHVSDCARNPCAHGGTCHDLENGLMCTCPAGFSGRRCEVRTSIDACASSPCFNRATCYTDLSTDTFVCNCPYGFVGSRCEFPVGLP

[
  {
    "binder": "362H3D3-hIgG1 chimeric antibody (antibody, V domains shown) VH: EVQLQQSGPELLKPGASVKISCKASGYTFTDYTMHWVKQSHGRSLEWIGGIHPNYGGTSYNEKFKDKATLTVDKSSSTAYMEFRSLTSEDSAVYYCARWGYYGGSYWYFDVWGTGTTVTVSS VL: DIQMTQSPASLSVSVGETVTITCRASENIYSNLAWYQQKQGKSPQLLVYAATNLADGVPSRFSGSGSGTQYSLKINSLQSEDFGSYYCQHFWGTPYTFGGGTKLEIKR",
    "binding result": "binds"
  }
]
